# test_system: MD-2 (Homo sapiens)
# Sequence (Q9Y6Y9 19-160): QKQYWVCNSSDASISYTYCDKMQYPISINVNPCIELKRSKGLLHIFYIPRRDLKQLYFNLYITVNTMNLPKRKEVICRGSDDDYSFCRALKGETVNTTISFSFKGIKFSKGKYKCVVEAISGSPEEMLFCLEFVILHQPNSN
assay_metric: pKd
Give bare numbers, as −log10 of the molar value.

What measured pKd goes with CN1CC[C@]23c4c5ccc(O[C@@H]6O[C@H](C(=O)O)[C@@H](O)[C@H](O)[C@H]6O)c4O[C@H]2[C@@H](O)C=C[C@H]3[C@H]1C5 [M3G, morphine-3-glucuronide] ? 5.82
